Please provide measured pKd for the entries that follow.
# measured on: T1, human Trop-2-His (human, UniProt P09758 27-274, limits assumed)
# T1 construct: by analogy with the macaque construct it is probably the extracellular domain with a His tag; also called Trop-2-His protein
# T1 sequence: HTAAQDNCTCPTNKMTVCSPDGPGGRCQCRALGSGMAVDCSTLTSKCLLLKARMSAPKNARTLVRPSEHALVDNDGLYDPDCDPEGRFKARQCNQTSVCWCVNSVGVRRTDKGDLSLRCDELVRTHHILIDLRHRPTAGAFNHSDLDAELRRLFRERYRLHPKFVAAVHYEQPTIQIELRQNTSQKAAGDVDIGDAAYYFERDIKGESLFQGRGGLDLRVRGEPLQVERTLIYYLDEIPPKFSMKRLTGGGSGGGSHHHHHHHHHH
# test summary: SPR (Biacore 8K), antibody captured, Trop-2-His as analyte
Keep it numeric: pKd is minus log10 of the concentration in mol/L.

Check the records and state pKd for hz-Ab35-2.1 (antibody, human IgG1, kappa, V domains shown, Humanized antibody) VH: QVQLVQSGAEVKKPGASVKVSCKASGYTFTSSDINWVRQRPGQGLEWMGWIYPRDGSKKYAQKFQGRVTMTVDTSTSTVYMELSSLRSEDTAVYYCATRFATVVSNYGLDPWGQGTLVTVSS VL: EIVLTQSPATLSLSPGERATLSCSASSSVNYIYWYQRKPGQAPRLLIYDTSNLASGIPARFSGSGSGTDYTLTISSLEPEDFAVYYCQQWNSYPLTFGQGTKVEIKR
9.35

Check the records and state pKd for hz-Ab2-2.3 (antibody, human IgG1, kappa, V domains shown, Humanized antibody) VH: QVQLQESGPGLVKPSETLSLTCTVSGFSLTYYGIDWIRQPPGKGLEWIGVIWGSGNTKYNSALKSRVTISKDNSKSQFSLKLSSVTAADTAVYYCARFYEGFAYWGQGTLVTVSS VL: DIQMTQSPSSLSASVGDRVTITCRASQDINSYLSWFQQKPGKAPKTLIYRANRLVEGVPSRFSGSGSGQDFTLTISSLQPEDFATYYCLQYDEYPLTFGQGTKVEIKR
8.57

Check the records and state pKd for hz-Ab21-2.2 (antibody, human IgG1, kappa, V domains shown, Humanized antibody) VH: EVQLVESGGGLVKPGGSLRLSCAASGFTLRNYGVHWVRQAPGKGLEWVGVIWSSGTTDYNAAFISRFTISKDNSKNTLYLQMNSLKTEDTAVYYCTRDGDYDYYTMDYWGQGTLVTVSS VL: EIVLTQSPATLSLSPGERATLSCRASKSVSTSAYSYIHWYQQKPGQPPRLLIYLTSNLESGIPARFSGSGSGTDFTLTISSLEPEDFAVYYCQHSRELPYTFGQGTKVEIKR
8.88

Check the records and state pKd for hz-Ab2-2.2 (antibody, human IgG1, kappa, V domains shown, Humanized antibody) VH: EVQLVESGPGLIQPGGSLRLSCAVSGFSLTYYGIDWVRQPPGKGLEWVGVIWGSGNTKYNYALKSRLTISKDNSKSTLYLQMNSLRAEDTAVYYCARFYEGFAYWGQGTLVTVSS VL: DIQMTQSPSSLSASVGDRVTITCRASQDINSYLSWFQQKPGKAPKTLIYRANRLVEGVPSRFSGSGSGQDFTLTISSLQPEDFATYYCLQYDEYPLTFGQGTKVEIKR
8.62

Check the records and state pKd for hz-Ab2-2.1 (antibody, human IgG1, kappa, V domains shown, Humanized antibody) VH: EVQLVESGGGLIQPGGSLRLSCAVSGFSLTYYGIDWVRQPPGKGLEWVSVIWGSGNTKYNSALKSRLTISRDNSKSTLYLQMNSLRAEDTAVYYCARFYEGFAYWGQGTLVTVSS VL: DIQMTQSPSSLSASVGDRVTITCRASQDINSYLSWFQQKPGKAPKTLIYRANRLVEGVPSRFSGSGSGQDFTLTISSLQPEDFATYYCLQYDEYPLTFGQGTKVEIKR
9.16

Check the records and state pKd for hz-Ab21-2.1 (antibody, human IgG1, kappa, V domains shown, Humanized antibody) VH: EVQLVESGGGLVKPGGSLRLSCAASGFTLRNYGVHWVRQAPGKGLEWVGVIWSSGTTDYAAPVKGRFTISKDNSKNTLYLQMNSLKTEDTAVYYCTRDGDYDYYTMDYWGQGTLVTVSS VL: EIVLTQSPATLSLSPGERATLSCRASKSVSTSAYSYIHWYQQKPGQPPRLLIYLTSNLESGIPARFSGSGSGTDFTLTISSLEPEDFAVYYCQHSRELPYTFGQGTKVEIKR
8.86
